All figures here come from PubChem BioAssay (Tox21).

- TGT: Thyrotropin receptor (Homo sapiens) (UniProt P16473)
- Sequence (P16473 whole entry, looked up): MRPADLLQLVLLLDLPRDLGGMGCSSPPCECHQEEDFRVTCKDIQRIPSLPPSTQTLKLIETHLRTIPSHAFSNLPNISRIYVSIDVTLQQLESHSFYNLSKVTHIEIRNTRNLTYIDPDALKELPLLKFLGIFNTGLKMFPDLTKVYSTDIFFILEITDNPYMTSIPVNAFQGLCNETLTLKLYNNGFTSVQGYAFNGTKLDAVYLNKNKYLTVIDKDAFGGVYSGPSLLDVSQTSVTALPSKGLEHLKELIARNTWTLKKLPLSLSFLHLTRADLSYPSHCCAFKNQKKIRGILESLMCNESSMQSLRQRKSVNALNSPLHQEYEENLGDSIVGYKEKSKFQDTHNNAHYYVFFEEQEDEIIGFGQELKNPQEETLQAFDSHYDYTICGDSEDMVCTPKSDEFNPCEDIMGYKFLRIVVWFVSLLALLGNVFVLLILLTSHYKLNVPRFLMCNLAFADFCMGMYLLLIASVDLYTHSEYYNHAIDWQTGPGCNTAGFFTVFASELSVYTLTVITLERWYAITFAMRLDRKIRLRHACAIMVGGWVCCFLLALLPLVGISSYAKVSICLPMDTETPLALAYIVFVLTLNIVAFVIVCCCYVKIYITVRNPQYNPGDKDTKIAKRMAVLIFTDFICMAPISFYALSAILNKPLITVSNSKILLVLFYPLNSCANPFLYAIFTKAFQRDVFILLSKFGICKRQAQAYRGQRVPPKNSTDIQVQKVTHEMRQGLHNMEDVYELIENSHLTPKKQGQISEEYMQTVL
- METHOD DESCRIPTION: qHTS assay to identify small molecule agonists of the thyroid stimulating hormone receptor (TSHR) signaling pathway (AID 1224843); also: nearly all actives have a fitted effect of over 45% in size
- CONDITIONS USED: TSHR-HEK293 cells, cAMP HTRF, agonist mode, 30 min; series mostly up to 92.4 µM
Inconclusive results are not listed. The source made the active and inactive calls. Calls follow the shape of the full dose curve.
MEASUREMENT NAME: activation

Field: example entries. Status: answers known.
# COMPOUND, MEASUREMENT NAME, ASSAY RESULT
data = [
    ("C#C[C@]1(OC(C)=O)CC[C@H]2[C@@H]3CCC4=C[C@@H](OC(C)=O)CC[C@@H]4[C@H]3CC[C@@]21C", "activation", "inactive"),
    ("O=c1[nH]c2ccccc2n1CCCN1CCN(C(c2ccccc2)c2ccccc2)CC1", "activation", "inactive"),
    ("CCCC[P+](C)(CCCC)CCCC", "activation", "inactive"),
    ("CCN1C(=O)c2ccccc2C1Nc1ccc(OCCN2CCCCC2)cc1 (configuration not stated)", "activation", "inactive"),
    ("CC1(C)CCC[C@]2(C)[C@H]3CCO[C@]3(C)CC[C@@H]12", "activation", "inactive"),
]

Now take the following compound into account.
Need activation, item CCCC(=O)OCCc1ccccc1
inactive
